TGT: Bem1-2, P29366
Sequence (P29366 139-227): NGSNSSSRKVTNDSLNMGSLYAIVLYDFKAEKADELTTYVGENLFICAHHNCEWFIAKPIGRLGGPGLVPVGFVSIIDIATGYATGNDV
PROTOCOL: SPOT array
PROTOCOL_CONDITIONS: median of control spots 4347
VALUE_KIND: SPOT intensity
// no unit, no text: just the number

Can you look up the measured SPOT intensity of IKTRSVPKIPSIESV for me?
0

Item under review: HVRRSILALPLGVLL . Reported SPOT intensity?
0

Item RKLRTVPGVPLIHLT has what recorded SPOT intensity?
0

Quick one: SPOT intensity for YLTRPLPSTPNEDSR ?
12

Data credit: paper PMC2756588
